# targetUnderTest: Beta-secretase 1 (Homo sapiens)
pIC50: −log10 of the molar value.
assayEndpoint: pIC50

Record excerpt, results attached:
[
  {
    "molecularString": "O=C(CSc1nc2ccc(Nc3nc(N4CCOCC4)nc(N4CCOCC4)n3)cc2s1)NCc1ccccc1",
    "pIC50": 4.30
  },
  {
    "molecularString": "O=C(CSc1nc2ccc(Nc3nc(N4CCCC4)nc(N4CCCC4)n3)cc2s1)NCc1ccccc1",
    "pIC50": 5.77
  }
]

I = O=C(CSc1nc2ccc(Nc3nc(N4CCCC4)nc(N4CCCC4)n3)cc2s1)NCc1ccco1
II = Cc1cccc(NC(=O)CSc2nc3ccc(Nc4nc(N5CCCC5)nc(N5CCCC5)n4)cc3s2)c1C
III = O=C(CSc1nc2ccc(Nc3nc(N4CCCCC4)nc(N4CCCCC4)n3)cc2s1)c1ccc(F)cc1
Prompt: List from greatest to least pIC50. // rank by listing labels in the order requested
Response: I, II, III
(I: 6.16, II: 5.55, III: 4.70)

###

# targetUnderTest: Beta-secretase 1 (Homo sapiens, UniProt P56817)
# Sequence (P56817 whole entry): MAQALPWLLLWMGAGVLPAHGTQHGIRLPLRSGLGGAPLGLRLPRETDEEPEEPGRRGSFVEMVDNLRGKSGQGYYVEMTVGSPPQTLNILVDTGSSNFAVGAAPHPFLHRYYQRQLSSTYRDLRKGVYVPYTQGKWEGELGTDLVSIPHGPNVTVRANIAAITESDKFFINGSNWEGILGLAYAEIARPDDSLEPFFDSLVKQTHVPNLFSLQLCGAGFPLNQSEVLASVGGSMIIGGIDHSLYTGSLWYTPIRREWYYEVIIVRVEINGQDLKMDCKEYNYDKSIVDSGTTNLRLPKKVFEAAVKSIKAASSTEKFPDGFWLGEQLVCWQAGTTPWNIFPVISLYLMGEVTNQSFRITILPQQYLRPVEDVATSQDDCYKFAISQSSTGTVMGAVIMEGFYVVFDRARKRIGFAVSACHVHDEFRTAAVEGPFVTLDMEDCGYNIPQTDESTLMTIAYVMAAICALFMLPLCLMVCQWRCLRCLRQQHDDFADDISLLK
# assayName: Inhibition of human BACE1 at 50 uM by FRET assay
assayEndpoint: inhibition (%)

Record excerpt, results attached:
[
  {
    "molecularString": "Cc1cccc(NC(=O)CSc2nc3ccc(Nc4nc(N5CCCC5)nc(N5CCCC5)n4)cc3s2)c1C",
    "inhibition (%)": 100
  },
  {
    "molecularString": "O=C(CSc1nc2ccc(Nc3nc(N4CCCC4)nc(N4CCCC4)n3)cc2s1)Nc1ccccc1",
    "inhibition (%)": 100
  }
]

a = O=C(CSc1nc2ccc(Nc3nc(N4CCCCC4)nc(N4CCCCC4)n3)cc2s1)Nc1ccccc1
b = CCOc1ccc(NC(=O)CSc2nc3ccc(Nc4nc(N5CCOCC5)nc(N5CCOCC5)n4)cc3s2)cc1
Prompt: Looking at a and b , which one comes out lower in inhibition terms? State the label of the item chosen.
Response: a

###

# targetUnderTest: Beta-secretase 1 (Homo sapiens)
# assayName: Inhibition of human BACE1 at 50 uM by FRET assay
assayEndpoint: inhibition (%)

[
  {
    "molecularString": "COc1ccc(OC)c(NC(=O)CSc2nc3ccc(Nc4nc(N5CCCCC5)nc(N5CCCCC5)n4)cc3s2)c1",
    "unitsOfMeasure": "%",
    "reading": 73
  },
  {
    "molecularString": "Cc1ccccc1NC(=O)CSc1nc2ccc(Nc3nc(N4CCOCC4)nc(N4CCOCC4)n3)cc2s1",
    "unitsOfMeasure": "%",
    "reading": 0.5
  },
  {
    "molecularString": "O=C(CSc1nc2ccc(Nc3nc(N4CCCC4)nc(N4CCCC4)n3)cc2s1)NCc1ccco1",
    "unitsOfMeasure": "%",
    "reading": 87
  },
  {
    "molecularString": "O=C(CSc1nc2ccc(Nc3nc(N4CCCC4)nc(N4CCCC4)n3)cc2s1)c1ccccc1",
    "unitsOfMeasure": "%",
    "reading": 93
  },
  {
    "molecularString": "CCOc1ccc(NC(=O)CSc2nc3ccc(Nc4nc(N5CCCCC5)nc(N5CCCCC5)n4)cc3s2)cc1",
    "unitsOfMeasure": "%",
    "reading": 77
  },
  {
    "molecularString": "CCOC(=O)CSc1nc2ccc(Nc3nc(N4CCOCC4)nc(N4CCOCC4)n3)cc2s1",
    "unitsOfMeasure": "%",
    "reading": 42
  }
]

1 = O=C(CSc1nc2ccc(Nc3nc(N4CCOCC4)nc(N4CCOCC4)n3)cc2s1)N1CCOCC1
2 = O=C(CSc1nc2ccc(Nc3nc(N4CCCCC4)nc(N4CCCCC4)n3)cc2s1)c1ccc(F)cc1
Prompt: Looking at 1 and 2 , which one comes out lower in inhibition terms? State the label of the item chosen.
Response: 1
(1: 16%, 2: 80%)
